The reported measurements were obtained from patent US9073855B2.

# TEST_TARGET: UniProt:Q07817
# Sequence (Q07817 whole entry): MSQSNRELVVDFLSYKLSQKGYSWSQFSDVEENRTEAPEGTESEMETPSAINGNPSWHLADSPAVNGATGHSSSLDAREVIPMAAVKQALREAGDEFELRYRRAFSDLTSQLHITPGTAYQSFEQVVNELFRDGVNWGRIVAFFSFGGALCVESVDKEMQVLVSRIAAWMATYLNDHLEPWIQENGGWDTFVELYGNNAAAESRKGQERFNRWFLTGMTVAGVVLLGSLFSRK
# PROTOCOL_NOTES: TR-FRET binding assay, GST-Bcl-XL with F-Bak peptide probe
# RUN_PARAMETERS: TR-FRET Binding Affinity
pKi: −log10 of the molar value.
Reported pKi by item:

[
  {
    "COMPOUND": "CC1(C)CCC(CN2CCN(c3ccc(C(=O)NS(=O)(=O)c4ccc(NC5CCN(C6CC6)CC5)c([N+](=O)[O-])c4)c(Oc4cccc5[nH]ncc45)c3)CC2)=C(c2ccc(Cl)cc2)C1 [Example 436]",
    "pKi": 8.19
  },
  {
    "COMPOUND": "CC1(C)CCC(CN2CCN(c3ccc(C(=O)NS(=O)(=O)c4cnc(OC[C@H]5CC[C@H](C#N)CC5)c(Cl)c4)c(Oc4cccc5[nH]ncc45)c3)CC2)=C(c2ccc(Cl)cc2)C1 [Example 492]",
    "pKi": 7.35
  },
  {
    "COMPOUND": "CC1(C)CCC(CN2CCN(c3ccc(C(=O)NS(=O)(=O)c4ccc(OCC5COCCO5)c(Cl)c4)c(Oc4cccc5[nH]ncc45)c3)CC2)=C(c2ccc(Cl)cc2)C1 (stereo not drawn) [Example 502]",
    "pKi": 6.84
  }
]
